All values here come from paper PMC8018780.

biological target: Recombinant mouse TfR protein (mTfR) (Mus musculus, UniProt Q62351); construct: His-tag; purchased SinoBiological, Inc., Beijing, PRC; assay: SPR binding to immobilized mouse TfR (Biacore 3000, CM5 chip); settings: unlabeled peptide, 0.25-4 μM, 25°C, pH 7.4, Langmuir 1:1 global fit
Sequence (Q62351 whole entry): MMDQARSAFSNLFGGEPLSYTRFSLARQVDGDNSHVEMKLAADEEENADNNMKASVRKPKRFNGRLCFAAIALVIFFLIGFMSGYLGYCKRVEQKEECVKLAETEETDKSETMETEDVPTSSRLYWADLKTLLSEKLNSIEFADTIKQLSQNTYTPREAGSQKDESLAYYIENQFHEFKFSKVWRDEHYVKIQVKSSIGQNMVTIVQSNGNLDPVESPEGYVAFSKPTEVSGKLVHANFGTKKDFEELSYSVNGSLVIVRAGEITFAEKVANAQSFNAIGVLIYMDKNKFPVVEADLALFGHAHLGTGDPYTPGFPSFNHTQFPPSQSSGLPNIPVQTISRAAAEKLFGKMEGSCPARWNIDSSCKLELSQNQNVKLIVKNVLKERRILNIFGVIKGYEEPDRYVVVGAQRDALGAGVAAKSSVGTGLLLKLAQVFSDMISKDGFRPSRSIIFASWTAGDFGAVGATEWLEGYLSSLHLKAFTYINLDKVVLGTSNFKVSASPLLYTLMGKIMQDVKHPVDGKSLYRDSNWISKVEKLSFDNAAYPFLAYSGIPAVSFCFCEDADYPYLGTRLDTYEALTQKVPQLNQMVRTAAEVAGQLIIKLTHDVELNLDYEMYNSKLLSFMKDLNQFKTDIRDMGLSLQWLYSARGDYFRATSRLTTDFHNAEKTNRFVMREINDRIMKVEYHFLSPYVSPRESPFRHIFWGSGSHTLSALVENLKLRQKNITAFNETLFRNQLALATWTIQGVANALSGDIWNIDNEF
Ends that are not written are not given here.
quantity kind: Kd (µM)
Give just the number in µM; leave the unit off.

Prompt: I would be grateful if you could share the reported Kd for GYRPVHNIRGHWAPGK-NH2 [GYR] .
Completion: 1000
